- Tested Target: CyclinB1/CDK1 (Homo sapiens, UniProt P14635)
- Construct: purchased Eurofins, discovery 14-450
- Experimental Details: Fluorescence Polarization (FP) competitive binding assay, Cyclin B1/Cdk1;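 also: fluorescence polarization read after equilibration at room temperature, with IC50 taken from serially diluted dose-response curves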
- Condition Summary: 10 nM Cyclin B1/Cdk1, 2 nM FAM probe; average of 2-3 independent experiments; read-out: Cyclin B FP IC50
*1 amine or outer side, *2 acyl side, *3 side chain or, on linkers, in order; H or OH if unused. Where a SMILES comes first, the peptide text is derived from it. Bridges are numbered along the chain shown (N, C = ends). [ ]: non-standard residue; d: D form. The star is where a group is joined. NMeAla(5-Cl-2-cPrO-3-pyridyl) = CN[C@@H](Cc1cc(Cl)cnc1OC1CC1)C(=O)O; X187 = CC(=O)N1CC=C(c2ccc(Cl)cc2C[C@@H](C(=O)[*:2])N(C)[*:1])C1; NMehhhLys(Me) = CN([C@@H](CCCCCCCN(C)[*:3])C(=O)[*:2])[*:1]; NMe(hhhLys) = CN([C@@H](CCCCCCCN[*:3])C(=O)[*:2])[*:1]; cBuCO(3,3-F2-1-CF3) = O=C(C1(C(F)(F)F)CC(F)(F)C1)*; Pro(trans-4-F) = O=C(O)[C@@H]1C[C@@H](F)CN1; Gly(cPr) = N[C@H](C(=O)O)C1CC1
Readout: IC50

{"columns": ["Compound", "Value Measured"],
 "data": [
  ["CC(=O)N1CC=C(c2ccc(Cl)cc2C[C@H]2C(=O)N(C)CCCCCCC[C@H](N(C)C(=O)[C@@H](NC(=O)[C@@H]3C[C@@H](F)CN3C(=O)C3(C(F)(F)F)CC(F)(F)C3)C3CC3)C(=O)N[C@@H](CC(C)C)C(=O)N2C)C1 [Example 308] ({cBuCO(3,3-F2-1-CF3)}-[Pro(trans-4-F)][Gly(cPr)][NMehhhLys(Me)]L[X187]; lactam 3-C)", "20 nM"],
  ["CC(C)C[C@@H]1NC(=O)[C@@H](N(C)C(=O)[C@@H](NC(=O)[C@@H]2C[C@@H](F)CN2C(=O)C2(C(F)(F)F)CC(F)(F)C2)C2CC2)CCCCCCCNC(=O)[C@H](Cc2cc(Cl)cnc2OC2CC2)N(C)C1=O [Example 103] ({cBuCO(3,3-F2-1-CF3)}-[Pro(trans-4-F)][Gly(cPr)][NMe(hhhLys)]L[NMeAla(5-Cl-2-cPrO-3-pyridyl)]; lactam 3-C)", "20 nM"]
]}

###

# maps each entry to its GI50
- Test system: NCI-H1048 cells
- Experimental Details: MTT proliferation assay, NCI-H1048;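 also: Dose-response in 96-well plates over 8 or 10 concentration points, with exposure spanning 3-4 cell doublings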
- Assay type: cell-based
- Condition Summary: 5 days compound exposure, 1:3 serial dilution starting at 10 μM
*1 amine or outer side, *2 acyl side, *3 side chain or, on linkers, in order; H or OH if unused. Where a SMILES comes first, the peptide text is derived from it. Bridges are numbered along the chain shown (N, C = ends). [ ]: non-standard residue; d: D form. The star is where a group is joined. ξ: configuration not given here. X205 = CC(C)C(=O)N1[C@@H]2COC[C@H]1C=C(c1ccc(F)cc1C[C@@H](C(=O)[*:2])N(C)[*:1])C2; X160 = CC(=O)N1CC=C(c2ccc(Cl)cc2C[C@@H](C(=O)[*:2])N(C)[*:1])C(C)(C)C1; X184 = CC(=O)N1CCC(c2ccc(F)cc2C[C@@H](C(=O)[*:2])N(C)[*:1])CC1; NMehhhLys(Me) = CN([C@@H](CCCCCCCN(C)[*:3])C(=O)[*:2])[*:1]; NMe(hhhLys) = CN([C@@H](CCCCCCCN[*:3])C(=O)[*:2])[*:1]; cBuCO(3,3-F2-1-CF3) = O=C(C1(C(F)(F)F)CC(F)(F)C1)*; Pro(trans-4-F) = O=C(O)[C@@H]1C[C@@H](F)CN1; Gly(cPr) = N[C@H](C(=O)O)C1CC1; ξGly(cPr) = NC(C(=O)O)C1CC1

{"columns": ["Molecule", "Tested Target", "GI50 (nM)"],
 "data": [
  ["CC(=O)N1CC=C(c2ccc(Cl)cc2C[C@H]2C(=O)NCCCCCCC[C@H](N(C)C(=O)C(NC(=O)[C@@H]3C[C@@H](F)CN3C(=O)C3(C(F)(F)F)CC(F)(F)C3)C3CC3)C(=O)N[C@@H](CC(C)C)C(=O)N2C)C(C)(C)C1 (stereo partly drawn) [Example 277] ({cBuCO(3,3-F2-1-CF3)}-[Pro(trans-4-F)][ξGly(cPr)][NMe(hhhLys)]L[X160]; lactam 3-C)", "NCI-H1048 cells", 330],
  ["CC(=O)N1CCC(c2ccc(F)cc2C[C@H]2C(=O)N(C)CCCCCCC[C@H](N(C)C(=O)[C@@H](NC(=O)[C@@H]3C[C@@H](F)CN3C(=O)C3(C(F)(F)F)CC(F)(F)C3)C3CC3)C(=O)N[C@@H](CC(C)C)C(=O)N2C)CC1 [Example 45] ({cBuCO(3,3-F2-1-CF3)}-[Pro(trans-4-F)][Gly(cPr)][NMehhhLys(Me)]L[X184]; lactam 3-C)", "NCI-H1048 cells", 20],
  ["CC(C)C[C@@H]1NC(=O)[C@@H](N(C)C(=O)[C@@H](NC(=O)[C@@H]2C[C@@H](F)CN2C(=O)C2(C(F)(F)F)CC(F)(F)C2)C2CC2)CCCCCCCNC(=O)[C@H](Cc2cc(F)ccc2C2=C[C@@H]3COC[C@H](C2)N3C(=O)C(C)C)N(C)C1=O [Example 325] ({cBuCO(3,3-F2-1-CF3)}-[Pro(trans-4-F)][Gly(cPr)][NMe(hhhLys)]L[X205]; lactam 3-C)", "NCI-H1048 cells", 10]
]}
